Target: TrkA (Homo sapiens)
Construct: The enzyme is a GST-fusion of the intracellular domain expressed in SF9 cells; GST
Sequence (P04629 440-796 limits assumed, species assumed): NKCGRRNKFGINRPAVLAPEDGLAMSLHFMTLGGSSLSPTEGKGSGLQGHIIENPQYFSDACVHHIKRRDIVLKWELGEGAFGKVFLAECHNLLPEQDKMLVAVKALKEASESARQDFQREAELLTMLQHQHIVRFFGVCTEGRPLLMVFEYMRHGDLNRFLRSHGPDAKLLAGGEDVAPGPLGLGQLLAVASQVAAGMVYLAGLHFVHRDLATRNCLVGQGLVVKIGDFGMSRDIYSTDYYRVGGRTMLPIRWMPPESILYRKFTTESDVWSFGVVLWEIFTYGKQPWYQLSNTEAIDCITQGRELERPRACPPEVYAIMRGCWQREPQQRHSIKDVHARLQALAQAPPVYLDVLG
Test: TrkA tyrosine kinase substrate phosphorylation assay (Src peptide, 33P-ATP, p81 filter plates)
Conditions: GST-fusion of TrkA intracellular domain, 30 uM ATP, 50 uM Src peptide, RT 120 min
Method: The compounds of the present invention have valuable pharmacologic properties. […] Screening format: Tyrosine kinase activity is being measured using a synthetic peptide substrate. […] The assay is performed in 96 well microtitre plates, and reaction products are detected following filtration through millipore p81 phosphocellulose plates.
For each record, write down the corresponding IC50.

Quick one: IC50 of O=C1Nc2ccccc2/C1=C/Nc1ccc2[nH]c(=O)[nH]c2c1 [Example 1] ? < 10 nM

Quick one: IC50 of CCC1(c2ccc(N/C=C3\C(=O)Nc4ccccc43)cc2)CCC(=O)NC1=O (stereo not drawn) [Example 3] ? < 10 nM

Quick one: IC50 of Nc1nnc(-c2cccc(N/C=C3\C(=O)Nc4ccc5[nH]nnc5c43)c2)o1 [Example 4] ? < 10 nM

Quick one: IC50 of O=C1Nc2ccccc2/C1=C/Nc1ccc(-c2nc[nH]n2)cc1 [Example 6] ? 10 to 100 nM

Quick one: IC50 of NC(=O)Cc1ccc(N/C=C2\C(=O)Nc3ccccc32)cc1 [Example 5] ? 10 to 100 nM

Quick one: IC50 of O=C1Nc2ccccc2/C1=C/Nc1ccc(-n2cncn2)cc1 [Example 2] ? < 10 nM

Origin of values: patent US20050282810A1
